The reported measurements were obtained from PubChem BioAssay (NCATS).

test-method-notes: Quantitative High-Throughput drug screen in 47 multiple myeloma cell lines against the NCATS MIPE library collection: OPM2_DSMZ cell viability assay (AID 1919872); note: nearly all actives have a fitted effect of over 30% in size
particulars: OPM2 myeloma viability, CellTiter-Glo ATP luminescence, 48 h; series mostly up to 45.8 µM
Records with an inconclusive call do not appear. Calls of active or inactive are those of the source. Calls come from the whole dose curve; as a rule, active = well fitted cell-killing curve with a large enough effect; inconclusive = small, poorly fitted or top-dose-only effect, or effect the other way; inactive = no such curve, though single readings can be large or run the other way.
Return exactly one item of T = active, F = inactive

Field: example entries. Status: answers known.
chem-smiles: NS(=O)(=O)c1cc(Cl)c(Cl)c(S(N)(=O)=O)c1
answer-label: F
--
chem-smiles: CCCCn1c(=O)n(Cc2ccccc2F)c(=O)c2[nH]c(Cc3ccc(NC(C)=O)cc3)nc21
answer-label: F
--
chem-smiles: COc1cc2nc(-c3cc(F)ccc3O)nc(N[C@@H]3CNC[C@@H]3C(C)(C)O)c2cc1OC
answer-label: T
--
chem-smiles: O=C(O)C1=CO[C@@H](O[C@@H]2O[C@H](CO)[C@H](O)[C@H](O)[C@H]2O)[C@@H]2C(CO)=CC[C@H]12
answer-label: F

Which outcome was assigned to `CC=C(C(=CC)c1ccc(O)cc1)c1ccc(O)cc1` in this test?
T
